Target: T1, CRF2R
T1 sequence (Q13324 whole entry, species assumed, looked up): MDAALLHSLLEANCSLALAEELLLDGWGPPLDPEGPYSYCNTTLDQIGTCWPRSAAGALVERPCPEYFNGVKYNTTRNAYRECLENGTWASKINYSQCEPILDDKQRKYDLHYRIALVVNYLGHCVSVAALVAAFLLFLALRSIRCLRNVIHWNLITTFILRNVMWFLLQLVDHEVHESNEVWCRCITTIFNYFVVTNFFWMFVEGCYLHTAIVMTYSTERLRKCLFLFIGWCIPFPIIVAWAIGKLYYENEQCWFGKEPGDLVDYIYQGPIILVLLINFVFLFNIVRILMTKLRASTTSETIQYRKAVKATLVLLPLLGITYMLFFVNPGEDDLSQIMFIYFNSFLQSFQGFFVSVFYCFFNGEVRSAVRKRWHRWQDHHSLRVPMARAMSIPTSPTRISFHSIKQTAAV
Experiment: cell-based or functional assay
assay_endpoint: CRF2R EC50 (nM)
Give a bare numeral; the unit nM is implied.

get_value(item= ZGPPISIDVPTYLLRKMIEIEKQEKEKQQATTNARILARV (C-terminal amide) [SEQ ID NO 170] , readout=CRF2R EC50) returns 75

Sample ZGPPISIDLPHWLLRKMIEIEKQEKEKQQAANNRLLLDTI (C-terminal amide) [SEQ ID NO 186] ; CRF2R EC50 observed: 25.1

The binder identified as ZGPPISIDLPKYLLRKMIEIEKQEKEKQQAANNRLLLDTI (C-terminal amide) [SEQ ID NO 58] registered its CRF2R EC50 at 71.6

Data provenance: patent US20030148956A1
